# Tested on: UO-31 renal
# assay.notes: NCI-60 one-dose screen, 48 h (100 = growth as untreated, 0 = no growth, -100 = all killed)
# condition.summary: 10 µM unless noted
About 83,000 compounds went through this panel and 20% of them were active in at least one assay; those are over-represented in the sample as a whole.
growth of 80% or higher: criterion met. Under 80%: criterion not met.

{"columns": ["compound", "target.or.system", "qualitative.label"],
 "data": [
  ["NC(=O)c1cccc(-c2ccccc2N2CCCCC2)c1", "UO-31 renal", "criterion met"],
  ["NC(=O)c1ncn(C2OC(CO)C(O)C2O)n1 (stereo not drawn)", "UO-31 renal", "criterion met"],
  ["c1ccc(Cn2nc3c(c2-c2ccccc2)-c2oncc2CC3)cc1", "UO-31 renal", "criterion met"],
  ["COc1ccc(C(O)c2cc3c(N)c(C(=O)Nc4cccc(Br)c4C)sc3nc2C)cc1 (stereo not drawn)", "UO-31 renal", "criterion not met"],
  ["CN1CCN(C(=O)[C@]2(C)CC[C@]3(C)CC[C@]4(C)C(=CC(=O)[C@@H]5[C@@]6(C)CCC(=O)NC(C)(C)[C@@H]6CC[C@]54C)[C@@H]3C2)CC1", "UO-31 renal", "criterion not met"],
  ["CCCCCCC/C=C/[C@H]1O[C@]2(O)C(=O)C=C3C[C@@H](O[C@@H]4O[C@H](CO)[C@@H](O)C(O)[C@@H]4O)C[C@@H]3[C@H]2C=C1C (stereo partly drawn)", "UO-31 renal", "criterion not met"],
  ["COc1ccc(-c2nc(N/N=C/c3ccco3)nc(N3CCOCC3)c2C#N)cc1", "UO-31 renal", "criterion not met"]
]}

====

# System: HS 578T breast
# assay.notes: NCI-60 one-dose screen, 48 h (100 = growth as untreated, 0 = no growth, -100 = all killed)
# condition.summary: 10 µM unless noted
The panel holds about 83,000 compounds, 20% with a hit somewhere; the sample as a whole holds those more often.
# growth values compiled below

{"columns": ["compound", "growth, %"],
 "data": [
  ["O=C1Nc2ccccc2/C1=N/c1nc(-c2ccc(Cl)cc2)cs1", 71.6],
  ["CCOC(=O)N1CCN(CCCCl)CC1", 108],
  ["S=c1[nH]cccc1-c1nnc2n1Nc1nc3ccc(Cl)cc3cc1CS2", 89.3],
  ["Cn1ncc2c(Nc3ccccc3Cl)nc(Cl)nc21", 136],
  ["CC(C)(C)OC(=O)N1C/C(=C\\c2ccoc2)C(=O)/C(=C/c2ccoc2)C1", 90.6],
  ["COc1nccnn1", 86.7],
  ["Cn1c2c(Cl)c(Cl)ccc2c2cc(N)[nH]c(=O)c21", 51.5],
  ["CC(C)CCSc1nc(NNC(N)=O)c(C#N)c(-c2ccccc2)n1", 112],
  ["Cc1c([N+](=O)[O-])cc(C(C)(C)C)cc1[N+](=O)[O-]", 99.5],
  ["CC(C)Cc1ccc(C(C)C(=O)NCc2ccc(Cn3c(=O)sn(-c4ccc(Cl)cc4)c3=O)cc2)cc1 (stereo unspecified)", 71.8],
  ["CC(C)(C)CC(C)(C)Nc1c(-c2ccc(C(F)(F)F)cc2)nc2cnccn12", 102]
]}

====

# Tested on: SNB-75 CNS
# assay.notes: NCI-60 one-dose screen, 48 h
# condition.summary: 10 µM unless noted
The panel holds about 83,000 compounds, 20% with a hit somewhere; the sample as a whole holds those more often. The source made the active and inactive calls. The calls were made as follows: active = growth percent below 10; inactive = the rest.
Outcomes: T = active, F = inactive

{"columns": ["compound", "qualitative.label"],
 "data": [
  ["COc1cc(OC)cc(C2C3=C(COC3=O)Nc3cc(OC)ccc32)c1 (stereo not given)", "F"],
  ["CC(=O)CCSc1ccc(OC(C)=O)cc1", "F"],
  ["COc1ccc(/C=N/C2=C(C#N)C(c3ccccc3[N+](=O)[O-])c3ccc4ccccc4c3O2)cc1 (stereo not given)", "F"],
  ["Brc1ccc(C2CC(c3cccc(Nc4ccncc4)c3)=NN2c2ccccc2)cc1 (stereo not given)", "F"],
  ["NC(=O)c1ncn(C2OC(CO)C(O)C2O)n1 (stereo not given)", "F"],
  ["CN1C(=O)N(C)C2NC(N/N=C/c3ccccc3)=NC21 (stereo not given)", "F"],
  ["COc1ccc(-n2cc(-c3cc(OC)c(OC)c(OC)c3)n(C(C)=O)c2=O)cc1", "F"],
  ["C(=N\\Nc1ncc(-c2cc3cc4c(cc3o2)OCO4)s1)/c1c[nH]c2ccccc12", "T"],
  ["CN1CCN(CCCOc2ccc3ncnc(Nc4ccc(Oc5cccc(C(F)(F)F)c5)c(Cl)c4)c3c2)CC1", "T"],
  ["COC(=O)C1=C(C(=O)ONCCN(C)C)C2C=CC1(C(Cc1ccccc1)Nc1ccc(F)cc1)O2 (stereo not given)", "F"],
  ["CCOC(=O)N1CCN(CCCCl)CC1", "F"],
  ["COc1ccc(/C=C/c2n[nH]c3ccc(N4CCOC4=O)cc23)cc1", "T"],
  ["O=C(NCCN1CCOCC1)OCc1nc2nc(Cl)nc(N3CCOCC3)c2[nH]1", "T"],
  ["CCOC(=O)C1=C(C)NC(C)=C(C(=O)OCC)C1c1cc(Br)c(O)c(OC)c1", "T"],
  ["O=C(N/N=C/c1ccc(O)c(O)c1)c1sc2ccccc2c1Cl", "F"],
  ["Nc1ccccc1NC(=O)c1ccc(CN2CCC/C(=C\\c3cccc(Cl)c3)C2=O)cc1", "F"],
  ["O=C(Nc1ccc(Cl)cc1)Nc1ccc(Cl)c(Cl)c1", "F"],
  ["C=C(C)[C@H]1CC/C(C)=C/CC[C@]2(C)O[C@H]2CC/C(COC(=O)[C@@H](OC(C)=O)[C@H](NC(=O)c2ccccc2)c2ccccc2)=C\\[C@@H]1O", "F"],
  ["CCCCCCCCOc1ccc(/C=N/Nc2cc(C)nc3ccc(Cl)cc23)cc1", "F"],
  ["Clc1ccc(N2N=C(c3cccc(Nc4ccncc4)c3)CC2c2ccc(Br)cc2)cc1 (stereo not given)", "F"],
  ["CN1CCN(c2cc(F)c(NC3=C(Cl)C(=O)c4ncccc4C3=O)c(F)c2)CC1", "F"],
  ["O=C(Nc1nc(-c2ccc(Br)cc2)cs1)c1cc(-c2ccc(Br)cc2)nc2ccc(Cl)cc12", "F"],
  ["CCCCCCCCN1C(=O)/C(=c2\\sc3n(c2=O)C2C(NN=3)N(CC)C(=O)N2CC)c2ccccc21 (stereo not given)", "T"],
  ["Fc1ccc2nc3c(cc2c1)CSc1nnc(-c2ccc[nH]c2=S)n1N3", "F"],
  ["COc1ccccc1/C=N/NC1=NC2C(N1)N(C)C(=O)N2C (stereo not given)", "F"],
  ["Cn1c(COC(=O)NCCN2CCOCC2)nc2c(N3CCOCC3)nc(-c3ccccc3)nc21", "T"],
  ["CN(Cc1ccccc1)c1nc(Cl)c(C2CC(c3ccc(Cl)cc3)=Cc3[nH][nH]c(=O)c32)s1 (stereo not given)", "F"],
  ["Cc1cccc(Oc2ccc(Nc3ncnc4ccc(NC(=O)CN(C)C)cc34)cc2Cl)c1", "F"],
  ["CCN1C(=O)N(CC)C2C1NN=c1s/c(=C3\\C(=O)Nc4ccccc43)c(=O)n12 (stereo not given)", "T"],
  ["O=C(O)c1ccc[n+](CC(=O)N2CCN(c3cc4c(cc3F)c(=O)c(C(=O)O)cn4C3CC3)CC2)c1", "F"],
  ["Fc1ccccc1CSc1ncnc2nc[nH]c12", "F"],
  ["COc1cc2oc(-c3cccc(C(=O)Nc4ccc(Cl)cc4)c3)cc(=O)c2c(OC)c1OC", "F"],
  ["Cc1cc2cc3cc(C)c(N)cc3[n+](C)c2cc1N", "F"],
  ["CCCC1C(C(=O)OCC)=C(N)Oc2cc(O)ccc21 (stereo not given)", "F"],
  ["N#CSCC1CC(O)(c2ccccc2)C(c2ccccc2)C(c2ccc(F)cc2)O1 (stereo not given)", "F"],
  ["COc1ccc(CNCCN2C(=O)c3ccc4c5c(ccc(c35)C2=O)C(=O)N(CCNCc2ccc(OC)cc2)C4=O)cc1", "T"],
  ["COc1cc2nc(-c3ccc(C(F)(F)F)cc3)cc(OCCCN3CCCCC3)c2cc1OC", "T"],
  ["O=C1/C(=C/c2ccc(O)cc2)COc2ccc(-c3ccccc3)cc21", "F"],
  ["C#Cc1cccc(NC(=O)Nc2cccc(N=C=S)c2)c1", "F"],
  ["COc1ccccc1C(C[N+](=O)[O-])c1c(-c2ccccc2)[nH]c2cc(C)ccc12 (stereo not given)", "F"]
]}
